tested on: Pseudomonas aeruginosa strain ATCC27853; assay: Antibacterial activity evaluation test, MIC by broth microdilution (CLSI); assay type: cell-based; conditions: Pseudomonas aeruginosa, ATCC27853
resultType: Antibacterial activity (MIC) Pseudomonas aeruginosa ATCC 27853 (µg/mL)
Output spec: scalar in µg/mL, unitless text.

Past entries and their recorded results:
# compound, readingUnit, recordedValue
data = [
    ("CC(C)(O/N=C(\\C(=O)N[C@@H]1C(=O)N2C[C@@](C(=O)O)(N3CCN(NC(=O)c4c[nH]c5cc(O)c(O)cc5c4=O)C3=O)S[C@H]12)c1csc(N)n1)C(=O)O", "µg/mL", 2),
    ("C=C(O/N=C(\\C(=O)NC1C(=O)N2C[C@@](C(=O)O)(N3CCN(NC(=O)C(=O)c4ccc(O)c(O)c4Cl)C3=O)S[C@H]12)c1csc(N)n1)C(=O)O (stereo partly drawn)", "µg/mL", 0.25),
]

Please turn your attention to the following entry.
query: Need Antibacterial activity (MIC) Pseudomonas aeruginosa ATCC 27853, item CC(C)(O/N=C(\C(=O)NC1C(=O)N2C[C@@](C(=O)O)(N3CCC[C@H](NC(=O)C(=O)c4ccc(O)c(O)c4Cl)C3=O)S[C@H]12)c1csc(N)n1)C(=O)O (stereo partly drawn)
result: 2

###

Below: a set of entries, each annotated with reported MIC.
system: VIM-2-containing Pseudomonas aeruginosa strain (S-3779); assay: Antibacterial activity evaluation test, MIC by broth microdilution (CLSI); assay type: cell-based; settings: Pseudomonas aeruginosa
The reply should contain only the number, in µg/mL.

query: Requested read-out MIC, target or system VIM-2-containing Pseudomonas aeruginosa strain (S-3779), entry CC(C)(O/N=C(\C(=O)N[C@@H]1C(=O)N2C[C@@](C(=O)O)(N3CC[C@@H](NC(=O)C(=O)c4ccc(O)c(O)c4Cl)C3=O)S[C@H]12)c1csc(N)n1)C(=O)O [Example 85]
result: 0.25

query: Request: MIC, test system VIM-2-containing Pseudomonas aeruginosa strain (S-3779), entry COCC(NC(=O)C(=O)c1ccc(O)c(O)c1Cl)C(=O)NN1CCN([C@]2(C(=O)O)CN3C(=O)C(NC(=O)/C(=N\OC(C)(C)C(=O)O)c4csc(N)n4)[C@H]3S2)C1=O (some centres unmarked) [Example 139]
result: 1

query: Fill in the recorded MIC for this compound, with VIM-2-containing Pseudomonas aeruginosa strain (S-3779) as test system: Nc1nc(/C(=N/OC2(C(=O)O)CC2)C(=O)N[C@@H]2C(=O)N3C[C@@](C(=O)O)(N4CCN(NC(=O)C(=O)c5ccc(O)c(O)c5Cl)C4=O)S[C@H]23)c(Cl)s1 [Example 76]
result: 0.25

query: Can you look up MIC on VIM-2-containing Pseudomonas aeruginosa strain (S-3779) for CC(C)(O/N=C(\C(=O)N[C@@H]1C(=O)N2C[C@@](C(=O)O)(N3CCN(NC(=O)CCNC(=O)c4ccc(O)c(O)c4Cl)C3=O)S[C@H]12)c1csc(N)n1)C(=O)O [Example 28] ?
result: 0.5

query: Write down the reported MIC of CC(C)(O/N=C(\C(=O)N[C@@H]1C(=O)N2C[C@@](C(=O)O)(N3CCN(NC(=O)CNC(=O)C(=O)c4ccc(O)c(O)c4Cl)C3=O)S[C@H]12)c1csc(N)n1)C(=O)O [Example 29] , test system: VIM-2-containing Pseudomonas aeruginosa strain (S-3779).
result: 0.5
